src = PubChem BioAssay AID652

- Measured Target: Gag-Pol polyprotein (Human immunodeficiency virus type 1 group M subtype B (isolate HXB2)) (UniProt P04585)
- Protocol Description: HIV-1 RT RNase H inhibitor potency, dose response, biochemical, probe assessment (AID 652)
- Run Conditions: HIV-1 RT RNase H enzymatic assay, inhibition, at 50 µM, stronger effect = higher value
Measured Property: inhibition (%)
Reply numerically in %, unit not repeated.

O=C(NC1CCS(=O)(=O)C1)c1c(NC(=O)C2COc3ccccc3O2)sc2c1CCCC2 (centres undefined)    88.4
N#CC1=C(N)SC(N)=C(C#N)C1c1ccnc2ccccc12    70.4
O=C(Nc1nc(-c2ccncc2)cs1)C1COc2ccccc2O1 (centres undefined)    92.5

Now look at this entry.
Bench note: what inhibition did COC(=O)N(c1ccc(OC)cc1)P1(=S)OCCC(C)O1 (centres undefined) show?
87.5
